The origin of these recorded values is the supplement of paper PMC9732359.

# PROTOCOL SUMMARY: protein stability index of a GFP-peptide fusion (yeast GPS) (PSI 1-4); higher = more stable; sorted into four equal gates, so the index is relative within each strain
# EXPERIMENTAL SETUP: pdr5∆
MEASUREMENT KIND: protein stability index
Form rule: numeric answer, no unit written next to it.

Look over these answered cases.
>>> assay_result("IRRLRVLRRLLAKYRDA [RPL19A]")
1.41
>>> assay_result("MQFAKSKTVKVLKTLIE [RPN6]")
1.43
>>> assay_result("GRKVLQKVQGESHIDSR [SIR4]")
3.33
>>> assay_result("PLPVETPRDRRKSVFAP [SSN2]")
2.31
>>> assay_result("TNVPKAKKRKTLILIQN [SIR3]")
1.63
>>> assay_result("FGAKPEEQKSSDTSKPA [YJL041W/NSP1]")
2.91
>>> assay_result("LSRLSTASKIIVIDVDY [MED1]")
2.3
>>> assay_result("VPNYEVSEKAFLLTQSK [RPN7]")
3.47
>>> assay_result("VQVSKAGGLPMDALTLM [RRP45]")
1.23
>>> assay_result("TDDSFEDKVFASKGRTK [BRN1]")
2.74

[ask] Item EATREVFGISKTSSGSY [ITC1] has what recorded protein stability index?
[reply] 3.09

[ask] Lookup ESNVNDSDMLTKSHNTV [NUT1]
[reply] 3.25

[ask] Lookup LPTTVVSNPGDNPPPAD [MED2]
[reply] 2.95

[ask] Lookup VFTALLRLFINEEGDWS [ITC1]
[reply] 2.08
